Where do the numbers come from? From PubChem BioAssay (NCI).

- System: HS 578T breast
- Experiment: NCI-60 one-dose screen, 48 h (100 = growth as untreated, 0 = no growth, -100 = all killed)
- Run Conditions: 10 µM
This is part of a sample that, as a whole, favours compounds with a hit. Of some 83,000 tested, about 20% had one in any assay.
Please go through the items and note down their growth.
One number for each entry, in %.

# example entries with known answers
[
  {
    "Molecule": "O=C(Nc1ccc(Cl)c([N+](=O)[O-])c1)Nc1ccc(Cl)c([N+](=O)[O-])c1",
    "Experimental Value": 45.1
  },
  {
    "Molecule": "CCN1CCN(Cc2ccc(NC(=O)c3cccc(-n4cc(-c5ccc(NC(C)=O)nc5)nn4)c3)cc2C(F)(F)F)CC1",
    "Experimental Value": 101
  },
  {
    "Molecule": "Cc1cc2c(c(O)c1Br)-c1ncoc1C(=O)[C@]1(C)CC[C@H](C(C)C)[C@H]21",
    "Experimental Value": 54.7
  },
  {
    "Molecule": "COc1ccc(-c2cc(-c3cc(C(=O)c4ccc(Br)cc4)n4ccc(C)cc34)nc(N)c2C#N)cc1",
    "Experimental Value": 90.8
  }
]

Batch lookup, growth per entry.
1. COc1ccc(-c2cc(C(=O)N=Nc3c(O)[nH]c4ccc(F)cc34)c3ccccc3n2)cc1
2. CN1C(=O)N(C)C2SC(N/N=C/c3ccc(F)cc3)=NC21 (stereo unspecified)

[74, 33.5]
